Recorded values, source the array DNA melting data of Ke et al. (doi:10.1101/2024.01.08.574731).

- assay_comment: folding enthalpy; higher = less favourable; fluorescence melt of hairpins on a sequencing array, two-state fit
- measurement_conditions: sodium 0.088 M
measurement_name: folding enthalpy (kcal/mol)
Respond numerically; units are kcal/mol and should not be typed.

Looking for the measured folding enthalpy of GATTGCGAAAGCACGATC ((((((....)))..))) , can you help? -7.93

Would you kindly repeat that for GAGACGGGAAACCATCTC ((((.((....)).)))) ? -24.5

Here is the next sequence: GTAGTCCGAAAGGATTAC (((.(((....))).))) -34.5

Subsequent entry: GCCGCCGAAAGGCTGGC ((((((....))).))) -20.8

Now this one: GGGGGAGGAAACTTCCCC ((((.((....)).)))) -47.8

Request: GCCTAGCGAAAGCATGGC (((..((....))..))) -30.7

GAGGGTGAAAACCCTC ((((((....)))))) , same question. -32.4

# iterate: GCAATGGGAAACCATCAC (..((((....))))..) -10.7

Same question, GGGCTGGGAAACCAACCC (((.(((....))).))) this time -30

Try GCTGGGCGAAAGCAAAGC (((..((....))..))) next. -20.9

Also GAATTACGAAAGTATTC (((.(((....)))))) ? -13.5

Then this sequence: CATCTGAAAAGATG (((((....))))) -25.1

Query GTGAGGGGAAACCCTTAC ((.((((....)))).)) next -26.7

Now the same for GAATACGGAAACGTATCC (.(((((....))))).) -15.8

---

- assay_comment: folding enthalpy; higher = less favourable; fluorescence melt of hairpins on a sequencing array, two-state fit
- measurement_conditions: sodium 0.088 M
For each record, write down the corresponding folding enthalpy.
Number in kcal/mol, nothing else.

Could you tell me which folding enthalpy is on file for GAGCCAGGAAACTGGTTC ((.((((....)))).)) ? -29.9

Subsequent entry: GGGATGGGAAACTATCCC (((((.(....).))))) -30.5

Try the sequence GCGGTTGCGAAAGCACGC (((..(((....)))))) -19.9

---

- assay_comment: melting temperature; fluorescence melt of hairpins on a sequencing array, two-state fit, raised by 9.35 °C to match UV melts
- measurement_conditions: sodium 0.088 M
measurement_name: Tm (°C)
The figure you give is taken to be in °C; do not add the unit.

Would you kindly share the measured Tm for GCCCATTCGAAAGAAGGC (((..(((....)))))) ? 33

What do we get for GATCCTACCTAGGATC ((((((....)))))) ? 53

Check GTACGCGGAAACACGCAC ((.((.(....).)).)) too. 31.1

Same question, TGCTGGAAACAGCA (((((....))))) this time 53.1

Another sequence: GCATCGCGAAAGCATTGC (((..((....))..))) 37.7

---

- assay_comment: folding enthalpy; higher = less favourable; fluorescence melt of hairpins on a sequencing array, two-state fit
- measurement_conditions: sodium 0.088 M
measurement_name: folding enthalpy (kcal/mol)
State just the number; it will be interpreted in kcal/mol.

Name the recorded folding enthalpy for GCGCGAGGAAACCCACGC (((.(.(....).).))) . -20.3

Try this sequence next: GCGGATTACCGC ((((....)))) -20

Also GAATACGAAAGTATTTTC ((((((....)))..))) ? -19.9
